Catalogue of compounds with associated inhibition at 200 µM
- System: P. aeruginosa ATCC 9027
- Experiment Description: Antibacterial activity, pre-exposure
- Format: cell-based, Pseudomonas aeruginosa
- Condition Summary: Pseudomonas aeruginosa, ATCC9027; P. aeruginosa ATCC 9027, pre-exposure, 200 µM, ± SD; read-out: Average inhibition %, planktonic cells turbidity
Record the value in %, omitting the unit from your answer.

Compound | Readout Unit | Reported Result
CCCCCCCCCCc1ccc(CCC(N)(CO)CO)cc1 [Compound 11] | % | 13.4
CCCCCCCCCCc1ccc(C(O)CC(N)(CO)CO)cc1 (centres unmarked) [Compound 55] | % | 59.4
CCCCCCCCc1ccc(CCC(N)(CO)CO)cc1 [fingolimod, Fingolimod] | % | 85.1

What value of inhibition at 200 µM has been recorded for this entry: CCCCCCCCc1ccc(C(O)CC(N)(CO)CO)cc1 (centres unmarked) [Compound 54]
94.1

What value of inhibition at 200 µM has been recorded for this entry: CCCCCCCCCCc1ccc(CCC(N)(CO)CO)nc1 [Compound 62]
92.5
